- methodNotes: Thermodynamic solubility
- Format: physicochemical
- experimentalContext: thermodynamic from solid
metric: solubility thermodynamic (µM)
The reply should be a number in µM, with the unit left off.

Field request: solubility thermodynamic | item: O=C(/C=C/c1ccccc1)N[C@@H](CC1CCCCC1)C(=O)N[C@@H](C[C@@H]1CCNC1=O)C(=O)C(=O)NCc1ccccc1 [Compound 11r, reference compound] 41

Requested read-out: solubility thermodynamic. Entry: CC(C)(C)OC(=O)Nc1cccn([C@@H](CC2CCCCC2)C(=O)N[C@@H](C[C@@H]2CCNC2=O)C(=O)C(=O)NC2CC2)c1=O [Compound 13a] 530

* * *

- methodNotes: Pharmacokinetics in CD-1 mice, subcutaneous route
- Assay type: in vivo
- experimentalContext: mouse, plasma, sc, CD-1 mice, 20 mg/kg, read-out: mean residence time
metric: MRT

I have this molecule here, CC(C)(C)OC(=O)Nc1cccn([C@@H](CC2CCCCC2)C(=O)N[C@@H](C[C@@H]2CCNC2=O)C(=O)C(=O)NC2CC2)c1=O [Compound 13a] , and I need its recorded MRT. ~1.6 h

* * *

- Tested on: SARS-CoV-2
- methodNotes: SARS-CoV-2 replication in human Calu-3 lung cells (viral RNA by qPCR)
- Format: cell-based
- experimentalContext: Severe acute respiratory syndrome coronavirus 2, Calu-3; MOI 0.05; viral RNA by qPCR; read-out: EC50 in human Calu-3 cells infected with SARS-CoV-2
- Procedure: (A) Calu-3 cells were infected with SARS-CoV-2 using a multiplicity of infection (MOI) of 0.05. […] DMSO was used as vehicle control (black bar). Total RNA was isolated from cell lysates, and viral RNA content was analyzed by quantitative polymerase chain reaction. Data are means ± SD of two biological experiments with two technical replicates each.
metric: EC50

Name the reported EC50 value associated with the compound CC(C)(C)OC(=O)Nc1cccn([C@@H](CC2CC2)C(=O)N[C@@H](C[C@@H]2CCNC2=O)C(=O)C(=O)NCc2ccccc2)c1=O [Compound 13b] 4 to 5 µM

* * *

- methodNotes: Pharmacokinetics in CD-1 mice, subcutaneous route
- Type: in vivo
- experimentalContext: mouse, plasma, sc, CD-1 mice, 3 mg kg^−1
metric: half-life (h)
Answer with a number only, understood to be in h.

State the recorded half-life for this entry: CC(C)(C)OC(=O)Nc1cccn([C@@H](CC2CC2)C(=O)N[C@@H](C[C@@H]2CCNC2=O)C(=O)C(=O)NCc2ccccc2)c1=O [Compound 13b] 1.8

* * *

- methodNotes: Pharmacokinetics in CD-1 mice, subcutaneous route
- Assay type: in vivo
- experimentalContext: mouse, plasma, sc, CD-1 mice, 20 mg/kg, read-out: maximum plasma concentration (Cmax)
metric: Cmax
Could you kindly put the unit after your number?

Would you mind telling me what Cmax value was observed for CC(C)(C)OC(=O)Nc1cccn([C@@H](CC2CCCCC2)C(=O)N[C@@H](C[C@@H]2CCNC2=O)C(=O)C(=O)NC2CC2)c1=O [Compound 13a] ? 334 ng/mL

* * *

- methodNotes: in vitro
- experimentalContext: mouse, microsomes
metric: microsomal CLint (µL/min/mg)
Express it in µL/min/mg; write the number only.

Need microsomal CLint, item CC(C)(C)OC(=O)Nc1cccn([C@@H](CC2CCCCC2)C(=O)N[C@@H](C[C@@H]2CCNC2=O)C(=O)C(=O)NC2CC2)c1=O [Compound 13a] 32

* * *

- methodNotes: Pharmacokinetics in CD-1 mice, subcutaneous route
- Type: in vivo
- experimentalContext: CD-1, mouse, mice, plasma
metric: half-life (min)
Supply the numeric figure in min, leaving out any unit text.

Report half-life for O=C(/C=C/c1ccccc1)N[C@@H](CC1CCCCC1)C(=O)N[C@@H](C[C@@H]1CCNC1=O)C(=O)C(=O)NCc1ccccc1 [Compound 11r, reference compound] please. 18

Name the recorded half-life for CC(C)(C)OC(=O)Nc1cccn([C@@H](CC2CCCCC2)C(=O)N[C@@H](C[C@@H]2CCNC2=O)C(=O)C(=O)NC2CC2)c1=O [Compound 13a] . 60

* * *

- methodNotes: Pharmacokinetics in CD-1 mice, subcutaneous route
- Type: in vivo
- experimentalContext: mouse, lung, sc, CD-1 mice, 20 mg/kg, 24 hours, read-out: concentration in lung tissue at 24 hours
metric: concentration at 24 hours (ng/g)
Express it in ng/g; write the number only.

What does the record list as concentration at 24 hours for CC(C)(C)OC(=O)Nc1cccn([C@@H](CC2CCCCC2)C(=O)N[C@@H](C[C@@H]2CCNC2=O)C(=O)C(=O)NC2CC2)c1=O [Compound 13a] ? 135

* * *

- methodNotes: Pharmacokinetics in CD-1 mice, subcutaneous route
- Assay type: in vivo
- experimentalContext: mouse, bronchio-alveolar lavage fluid (BALF), sc, CD-1 mice, 20 mg/kg, 24 hours, read-out: concentration in bronchio-alveolar lavage fluid (BALF) at 24 hours
metric: concentration at 24 hours
Answer by giving the amount and then stating its unit.

Value lookup for concentration at 24 hours; key = CC(C)(C)OC(=O)Nc1cccn([C@@H](CC2CCCCC2)C(=O)N[C@@H](C[C@@H]2CCNC2=O)C(=O)C(=O)NC2CC2)c1=O [Compound 13a] 52.7 ng/mL

* * *

- experimentalSystem: UniProt:K9N7C7
- Sequence (K9N7C7 3248-3553 limits assumed): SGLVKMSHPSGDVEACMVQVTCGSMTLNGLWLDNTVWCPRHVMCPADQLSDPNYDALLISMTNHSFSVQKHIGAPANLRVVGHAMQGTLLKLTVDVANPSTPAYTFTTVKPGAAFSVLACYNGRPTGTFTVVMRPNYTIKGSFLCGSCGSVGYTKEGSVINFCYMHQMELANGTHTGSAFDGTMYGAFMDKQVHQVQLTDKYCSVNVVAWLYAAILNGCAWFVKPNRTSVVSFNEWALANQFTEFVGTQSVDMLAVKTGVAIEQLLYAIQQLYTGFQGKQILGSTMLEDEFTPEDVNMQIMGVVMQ
metric: pIC50
Reminder that pIC50 is minus the log10 of a molar concentration.

Observed pIC50 on UniProt:K9N7C7 for CC(C)(C)OC(=O)Nc1cccn([C@@H](CC2CC2)C(=O)N[C@@H](C[C@@H]2CCNC2=O)C(=O)C(=O)NCc2ccccc2)c1=O [Compound 13b] , please. 6.24

* * *

- methodNotes: in vivo
- experimentalContext: CD-1, mouse, lung, inhaled, 3 mg kg^−1
metric: concentration at 24 hours (ng/g)
Give the value, in units of ng/g, as a plain number.

Given the molecule CC(C)(C)OC(=O)Nc1cccn([C@@H](CC2CC2)C(=O)N[C@@H](C[C@@H]2CCNC2=O)C(=O)C(=O)NCc2ccccc2)c1=O [Compound 13b] , what is its reported concentration at 24 hours? 33

* * *

- methodNotes: in vitro
- experimentalContext: human, microsomes
metric: microsomal CLint (µL/min/mg)
Number in µL/min/mg, nothing else.

// query microsomal CLint value for entry CC(C)(C)OC(=O)Nc1cccn([C@@H](CC2CCCCC2)C(=O)N[C@@H](C[C@@H]2CCNC2=O)C(=O)C(=O)NC2CC2)c1=O [Compound 13a] 21

* * *

- methodNotes: Pharmacokinetics in CD-1 mice, subcutaneous route
- Assay type: in vivo
- experimentalContext: mouse, lung, sc, CD-1 mice, 3 mg kg^−1, 4 hours, read-out: lung tissue level after 4 hours
metric: concentration at 4 hours

Give the measured concentration at 4 hours of CC(C)(C)OC(=O)Nc1cccn([C@@H](CC2CC2)C(=O)N[C@@H](C[C@@H]2CCNC2=O)C(=O)C(=O)NCc2ccccc2)c1=O [Compound 13b] . ~13 ng/g
